Recorded measurements of optical density, one per entry
biological target: Human Fc (human); test: ELISA, negative control
endpointLabel: optical density (OD)

binder: 371_A08 (antibody, V domains shown) VH: EVQLLESGGGLVQPGGSLRLSCAASGFTFSSYGMHWVRQAPGKGLEWVSSINYNGGYTSYADSVKGRFTISRDNSKNTLYLQMNSLRAEDTAVYYCARSANWHDTALDYWGQGTLVTVSS VL: DIQMTQSPSSLSASVGDRVTITCRASQSILSYLNWYQQKPGKAPKLVIYAATSRASGVPSRFSGSGSGTDFTLTISSLQPEDFATYYCQQSYELPLTFGGGTKVEIK
number: 0.304
--
binder: 370_G06 (antibody, V domains shown) VH: EVQLLESGGGLVQPGGSLRLSCAASGFTFSDYGMHWVRQAPGKGLEWVSSINYNGGYTSYADSVKGRFTISRDNSKNTLYLQMNSLRAEDTAVYYCARSANWHDTALDYWGQGTLVTVSS VL: DIQMTQSPSSLSASVGDRVTITCRASQSILSYVNWYQQKPGKAPKLVIYAATSRASGVPSRFSGSGSGTDFTLTISSLQPEDFATYYCQQSDNTPLTFGGGTKVEIK
number: 0.356
